Experiment Notes: Inhibition of sheep dynamin 1 GTPase activity after 30 mins by malachite-green method
Set-up: species or system Ovis aries
Rule for this label: 1.0 means IC50 is less than 20 µM; 0.0 means IC50 is at least 20 µM.

Structure As Smiles: O=C(O)CCN1C(=O)/C(=C/c2ccc(-c3ccccc3)cc2)SC1=S
Class Label: 0.0
--
Structure As Smiles: O=C(O)CN1C(=O)/C(=C/c2cc(Cl)cc(Cl)c2)SC1=S
Class Label: 1.0
--
Structure As Smiles: CN(C)CCCOc1ccc(/C=C2\SC(=S)N(Cc3ccccc3)C2=O)cc1
Class Label: 0.0
--
Structure As Smiles: O=C(O)CCN1C(=O)/C(=C/c2csc3ccc(Cl)cc23)SC1=S
Class Label: 0.0
--
Structure As Smiles: O=C1/C(=C/c2coc3c(Cl)cc(Cl)cc3c2=O)SC(=S)N1Cc1ccccc1
Class Label: 1.0
--
Structure As Smiles: O=C(O)CN1C(=O)/C(=C/c2ccc(-c3ccccc3)cc2)SC1=S
Class Label: 0.0

Inquiry: Identify whether the compound O=C1NC(=S)S/C1=C\c1cnc2ccccc2n1 records IC50 below 20 µM.
Reply text: 0.0

Inquiry: Next entry: O=C1NC(=S)S/C1=C\c1coc2c(Cl)cc(Cl)cc2c1=O
Reply text: 0.0

Inquiry: Then CCN1C(=O)/C(=C/c2ccc(OCCCN(C)C)cc2)SC1=S ?
Reply text: 1.0

Inquiry: Could you do the same for O=C1/C(=C/c2ccc(Br)cc2)SC(=S)N1Cc1ccccc1 , please?
Reply text: 0.0

Inquiry: Okay, and O=C(O)CCN1C(=O)/C(=C/c2cc(Cl)cc(Cl)c2)SC1=S ?
Reply text: 1.0

These entries and their values trace back to ChEMBL document CHEMBL2062444.
